Parameter: Avidity (relative to control HEK293T cells = 1). Scope: all listed entries.
# Experimental system: T1, cynomolgus monkey IGF-I receptor (cynomolgus monkey, UniProt P08069 31-1367 (human entry))
# T1 construct: Whole entry as named; expressed on HEK293T cells; also called IGF-I receptor of cynomolgus monkey; XP_005560575
# T1 sequence (P08069 other isoform, or with tags, fused parts or gaps limits assumed): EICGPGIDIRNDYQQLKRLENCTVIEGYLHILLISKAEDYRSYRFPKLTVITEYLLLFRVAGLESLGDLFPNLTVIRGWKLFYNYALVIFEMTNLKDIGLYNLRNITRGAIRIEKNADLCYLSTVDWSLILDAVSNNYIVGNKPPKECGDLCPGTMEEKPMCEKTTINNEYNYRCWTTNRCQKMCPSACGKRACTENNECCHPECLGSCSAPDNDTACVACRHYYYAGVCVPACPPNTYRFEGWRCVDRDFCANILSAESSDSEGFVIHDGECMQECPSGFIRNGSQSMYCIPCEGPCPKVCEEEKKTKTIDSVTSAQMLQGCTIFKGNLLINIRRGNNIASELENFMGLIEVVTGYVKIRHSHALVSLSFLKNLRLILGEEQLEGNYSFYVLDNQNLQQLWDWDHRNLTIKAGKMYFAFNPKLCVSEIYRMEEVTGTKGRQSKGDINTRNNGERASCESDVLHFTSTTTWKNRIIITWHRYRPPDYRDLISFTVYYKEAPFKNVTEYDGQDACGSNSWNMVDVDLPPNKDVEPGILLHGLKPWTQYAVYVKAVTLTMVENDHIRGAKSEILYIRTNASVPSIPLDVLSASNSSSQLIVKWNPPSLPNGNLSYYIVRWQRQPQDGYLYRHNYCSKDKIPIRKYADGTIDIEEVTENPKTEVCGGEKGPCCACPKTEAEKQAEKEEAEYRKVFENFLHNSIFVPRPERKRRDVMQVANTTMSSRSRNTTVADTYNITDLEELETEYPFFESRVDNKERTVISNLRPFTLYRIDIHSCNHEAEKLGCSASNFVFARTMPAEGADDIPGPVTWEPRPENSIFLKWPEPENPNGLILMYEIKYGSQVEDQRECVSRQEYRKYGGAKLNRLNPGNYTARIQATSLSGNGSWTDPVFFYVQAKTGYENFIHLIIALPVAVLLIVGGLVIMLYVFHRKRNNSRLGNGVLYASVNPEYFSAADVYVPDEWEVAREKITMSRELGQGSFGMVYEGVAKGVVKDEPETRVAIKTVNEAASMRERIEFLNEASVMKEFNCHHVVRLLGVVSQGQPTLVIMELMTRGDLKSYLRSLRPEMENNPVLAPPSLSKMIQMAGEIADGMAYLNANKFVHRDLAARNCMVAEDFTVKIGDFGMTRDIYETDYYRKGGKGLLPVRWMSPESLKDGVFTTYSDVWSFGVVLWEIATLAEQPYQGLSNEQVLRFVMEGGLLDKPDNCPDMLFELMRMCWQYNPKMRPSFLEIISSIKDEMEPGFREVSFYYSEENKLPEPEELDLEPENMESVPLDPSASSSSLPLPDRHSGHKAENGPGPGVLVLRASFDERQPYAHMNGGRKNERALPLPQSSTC
# Assay method text: cell-based ELISA, 2 nM antibody on HEK293T cells expressing the receptor, A450-A650

Consider the worked cases shown below.
Binder | Assay value
anti-IGF-I receptor humanized antibody R11-16B (antibody, human IgG4, V domains shown, Heavy chain constant region: human IgG4 S228P variant; Expressed in Expi293, protein A purified; also called R11-16B antibody; R11-16VH + R11-16VL-C36Y) VH: QVQLVQPGAELVKPGASVKVSCKAPGYTFTSYWMHWVRQAPGQGLEWIGETNPSNSVTNYNEKFKSKATLTVDTSTSTVYMELSSLRSEDTAVYYCTIGRGRGFAYWGQGTLVTVSS VL: DIQMTQSPSSLSASVGDRVTITCRASQNINFWLSWYQQKPGKAPKLLIYKASNLHTGVPSRFSGSGSGTDFTFTISSLQPEDIATYYCLQGQSYPYTFGQGTKLEIK | 3.3 fold of control cells
anti-IGF-I receptor humanized antibody R11-16E (antibody, human IgG4, V domains shown, also called R11-16E antibody; R11-16VH + R11-16VL-C36F) VH: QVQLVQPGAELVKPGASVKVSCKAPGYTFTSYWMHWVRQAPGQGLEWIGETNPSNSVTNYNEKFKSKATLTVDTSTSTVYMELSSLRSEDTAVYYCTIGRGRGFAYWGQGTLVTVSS VL: DIQMTQSPSSLSASVGDRVTITCRASQNINFWLSWFQQKPGKAPKLLIYKASNLHTGVPSRFSGSGSGTDFTFTISSLQPEDIATYYCLQGQSYPYTFGQGTKLEIK | 3.7 fold of control cells

Next binder, Avidity (relative to control HEK293T cells = 1) to be filled in.
Ask | I would be grateful if you could share the reported Avidity (relative to control HEK293T cells = 1) for anti-IGF-I receptor humanized antibody R11-16F (antibody, human IgG4, V domains shown, also called R11-16F antibody; R11-16VH + R11-16VL-C36) VH: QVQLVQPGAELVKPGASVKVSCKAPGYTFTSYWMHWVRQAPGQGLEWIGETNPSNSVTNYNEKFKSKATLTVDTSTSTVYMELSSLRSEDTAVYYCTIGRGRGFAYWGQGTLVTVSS VL: DIQMTQSPSSLSASVGDRVTITCRASQNINFWLSWCQQKPGKAPKLLIYKASNLHTGVPSRFSGSGSGTDFTFTISSLQPEDIATYYCLQGQSYPYTFGQGTKLEIK .
Reply | 3.3 fold of control cells
